- method-summary: Acute intervention: nutrikinetics of plasma metabolites after ingestion of L. citriodora extract (untargeted HPLC-ESI-QTOF-MS)
- run-conditions: 4 h after L. citriodora extract
observed-property: mean chromatographic area in plasma, T4

[Q] Entry under review: COc1cc(/C=C/C(=O)O)ccc1O[C@@H]1O[C@H](C(=O)O)[C@@H](O)[C@H](O)[C@H]1O [ferulic acid 4-O-glucuronide] . Reported mean chromatographic area in plasma, T4?
[A] 163

----------
- method-summary: Acute intervention: nutrikinetics of plasma metabolites after ingestion of O. europaea extract (untargeted HPLC-ESI-QTOF-MS)
- run-conditions: 8 h after O. europaea extract
Where a name gives a salt, the structure may show the parent alone.
Recorded mean chromatographic area in plasma, T8 for the following compounds

>>> measured_result("COc1cc(C=CC(=O)O)ccc1OS(=O)(=O)O [ferulic acid 4-sulfate]")
0
>>> measured_result("Cc1cccc(O)c1O")
13
>>> measured_result("COc1cc(CCO)ccc1OS(=O)(=O)O [homovanillyl alcohol sulfate]")
0
>>> measured_result("COc1cc(C(=O)O)cc(OC)c1OC")
0
>>> measured_result("O=C(O)CCCCCCCCC(=O)O [decanedioic acid isomer 1, decanedioic acid]")
11

[Q] Entry under review: CC(=O)Oc1cc2c(c(C)c1OC(C)=O)CC=C1[C@@]2(C)CC[C@@]2(C)C3C[C@](C)(C(=O)O)CC[C@]3(C)CC[C@]12C (stereo partly shown) [dihydrocelastryl diacetate] . Reported mean chromatographic area in plasma, T8?
[A] 38

[Q] Entry under review: COc1cc(C)cc(OC)c1OC . Reported mean chromatographic area in plasma, T8?
[A] 0
